molecular target: Recombinant soluble trimeric human BAFF (furin-cleaved human BAFF 134-285) (human, UniProt Q9Y275 134-285); experiment: cell-based or functional assay
The following binders are shown together with reported Soluble trimeric huBAFF (52 pM) Neutralization IC90 values.
The response must be a number in pM with no trailing unit.

binder | value
214G4B7 (antibody, V domains shown, Mouse lead antibody (hybridoma)) VH: QVQLQQPGAEFVKPGASVKLSCKASGYSFSTFCIHWVQQRPGRGLEWIGRIDPNSGGTKYNEKFESKATLTIDKPSSTAYVHLSSLTSEDSAVYYCARGEDLLIRTDAMDYWGQGTSVTVSS VL: DIVMTQSQKFMSTTVGDRVSITCKASQNAGTAVAWFQQKPGQSPKLLIFSTSNRYTGVPDRFTGSGSGTDFTLTISNMQSEDLADYFCLQYRSYPRTFGGGTKLEIK | 296

Next:
Query (binder): 206G9A10 (antibody, V domains shown, Mouse lead antibody (hybridoma)) VH: QVQLQQPGAELVKPGASVKLSCKASGYTFSIFCIHWVQQRPGRGLEWIGRIDPSSGGTKYNEKFESKATLTVDKSSSTAYMQLSSLTSEDSAVYYCARGEDLLVRTDAMDYWGQGTSVTVSS VL: DIVMTQSQKFMSTTVGDRVSITCKASQNAGAAVAWFQQKPGQSPKLLIYSASNRYTGVPDRFTGSGSGTDFTLTISNVQSEDLADYICQQYRSYPRTFGGGTKLEIK ; field requested: Soluble trimeric huBAFF (52 pM) Neutralization IC90
35.1

Reference source for all entries: patent US20190309034A1
